Tested on: MOLT-4 leukemia
Assay: NCI-60 one-dose screen, 48 h
Condition: 10 µM unless noted
This is part of a sample that, as a whole, favours compounds with a hit. Of some 83,000 tested, about 20% had one in any assay. Calls of active or inactive are those of the source. How the source made its calls: active means growth percent below 10; inactive means the rest.
In this exercise, the only acceptable responses are active, inactive

The examples below pair each entry with its known result.
compound=COc1cc2c(cc1O)CCN1C[C@@H](CC(C)C)[C@@H](O)C[C@@H]21 study_system="MOLT-4 leukemia" label=inactive
compound="CC1CN(c2oc(-c3ccccc3)nc2C#N)CC(C)O1 (stereo not given)" study_system="MOLT-4 leukemia" label=inactive
compound=COc1ccc(/C=C/c2c(C(C)=O)c(C)nc3ccccc23)cc1 study_system="MOLT-4 leukemia" label=inactive
compound=COC(=O)[C@]12CC[C@@H](C)[C@H](C)[C@@H]1C1=CC[C@@H]3[C@@]4(C)C(C=O)=C[C@@](C)(COC(=O)c5ccco5)[C@@H]4[C@H](O)C[C@@]3(C)[C@]1(C)CC2 study_system="MOLT-4 leukemia" label=active
compound="CCN(CC)CCC(CNc1c2ccc(Cl)cc2nc2ccc(OC)cc12)c1ccccc1 (stereo not given)" study_system="MOLT-4 leukemia" label=active

GET /call?item= COc1ccc(-c2cnnn2-c2nonc2-n2cccc2)cc1OC returns the recorded outcome of this test.
inactive

Hi team, can someone confirm the assay call for C=C1CC2(OC1=O)C(=O)N(CCCN1C(=O)C3(CC(=C)C(=O)O3)c3ccccc31)c1ccccc12 (stereo not given) ?
active

// outcome(item) with item = COc1ccccc1CNCCCN1C(=O)c2ccc3c4c(ccc(c24)C1=O)C(=O)N(CCCNCCCCNCCCN)C3=O
active

---

Tested on: NCI-H226 lung
Assay: NCI-60 one-dose screen, 48 h (100 = growth as untreated, 0 = no growth, -100 = all killed)
Condition: 10 µM unless noted
This is part of a sample that, as a whole, favours compounds with a hit. Of some 83,000 tested, about 20% had one in any assay.
Parameter Measured: growth (%)
Answers are plain numbers, in %.

molecule=CC1=NC2=CC=CC3=NC(C(Cl)(Cl)Cl)=NC(=N1)N23 parameter_measured=growth data_value=83.5
molecule=CN(C)c1cccc2c(S(=O)(=O)/N=C(\N)Nc3nc4ccccc4s3)cccc12 parameter_measured=growth data_value=69.8

Hi there! I need growth for each item below, if you can.
1. COc1ccc(Nc2[nH]n3c(=O)cc(C)nc3c2C(N)=O)c(OC)c1
2. CC(C)CSc1nc(NN)c(C#N)c(-c2ccc(F)cc2)n1
3. O=C(/C=C/c1cc(-c2ccc3c(c2)OCO3)n[nH]1)c1ccc2c(c1)OCO2
4. N#Cc1c(Nc2ccccc2)nc2n(c1=O)-c1ccccc1Sc1ccccc1-2
5. COC(=O)C(Sc1ccc(Cl)cc1)C1SC(=S)N(Cc2ccccc2)C1=O (configuration not stated)
6. O=C(CSC1CCc2ccccc21)N/N=C/c1ccccc1O (configuration not stated)

1: 97.4; 2: 80.3; 3: 89.4; 4: 84.4; 5: 116; 6: 67.7

// batch mode: one growth value per listed entry
1. CCN(CC)c1ccc(N=O)cc1
2. O=c1ccn(-c2ncnc3nc[nH]c23)cc1
3. COc1ccc(-c2c(N)n[nH]c2-c2cc(OC)c3c(c2)OCCO3)cc1
4. CC(NNC(C)c1ccccc1)c1ccccc1 (configuration not stated)

101
88.8
93.3
98.8

---

Tested on: SW-620 colon
Assay: NCI-60 one-dose screen, 48 h
Condition: 10 µM unless noted
The panel holds about 83,000 compounds, 20% with a hit somewhere; the sample as a whole holds those more often. Active and inactive are the calls of the source. Rule for the calls: active = growth percent below 10; inactive = the rest.
Answer with one of the outcomes true (active), false (inactive)

Entry Cc1ccc(Cc2c(C=O)nc(N)[nH]c2=O)c2ccccc12 : call = ?
false

Entry Nc1ccc(C(=O)CSc2nc3ccccc3[nH]2)cc1 : call = ?
false

Dear all, I need the recorded test outcome for CC(C)(C)NCCC(O)c1cc2c(Cl)cc(Cl)cc2c2cc(C(F)(F)F)ccc12 (stereo unspecified) , thank you.
true

Hi, sorry to bother you, what did the test record for COC(OC)c1ccccc1 ?
false

Can you look up the reported call for Cc1cc(N/N=C/c2nc(-c3ccccc3)oc2C)c2cc(Br)ccc2n1 for me?
false

What is the recorded call for this compound in the test? COc1ccc2[nH]c(C(=O)OCc3ccc4c(Cl)cc(Cl)c(O)c4n3)cc2c1
true

---

Test system: SK-MEL-5 melanoma
Assay: NCI-60 one-dose screen, 48 h
Condition: 10 µM unless noted
The panel holds about 83,000 compounds, 20% with a hit somewhere; the sample as a whole holds those more often. The source made the active and inactive calls. Rule for the calls: active = growth percent below 10; inactive = the rest.
A correct response names exactly one class from active, inactive

compound=CCN1CCN(CC(=O)N2c3cccc4cccc(c34)N(C(=O)CN3CCN(CC)CC3)C2c2cn(-c3ccccc3)nc2-c2cccc([N+](=O)[O-])c2)CC1 study_system="SK-MEL-5 melanoma" label=active
compound=COC(OC)c1ccccc1 study_system="SK-MEL-5 melanoma" label=inactive
compound=O=c1cc(Cc2ccc([N+](=O)[O-])cc2)[nH]c(=O)[nH]1 study_system="SK-MEL-5 melanoma" label=inactive
compound=CCOC(=O)CN1/C(=N/c2sc3c(c2C(=O)OCC)CCN(C(=O)OCC)C3)SC(=O)/C1=C\C(=O)OC study_system="SK-MEL-5 melanoma" label=inactive
compound=O=C(Nc1cccc(-n2cc(-c3ccncc3)c(-c3ccc(Cl)c(O)c3)n2)c1)Nc1cc(C(F)(F)F)cc(C(F)(F)F)c1 study_system="SK-MEL-5 melanoma" label=active

In this assay, the call recorded for CCN(CC)CCC(CNc1c2ccc(Cl)cc2nc2ccc(OC)cc12)c1ccccc1 (centres undefined) was what?
active

Query: recorded result category for Nc1cc2c([nH]c[n+]2CC#CCCl)c(SCC#CCCl)n1 in this test
active

---

System: A498 renal
Assay: NCI-60 one-dose screen, 48 h
Condition: 10 µM unless noted
About 83,000 compounds went through this panel and 20% of them were active in at least one assay; those are over-represented in the sample as a whole. Activity calls are given as the source filed them. How the source made its calls: active means growth percent below 10; inactive means the rest.
Give one outcome, nothing more. List: active, inactive

Take a look at these entries with their results.
compound="O=C1C2(c3ccccc3)C(c3ccccc3)=C(c3ccccc3)C1(c1ccccc1)C1CC=CC12 (centres undefined)" label=inactive
compound=COc1ccc(-c2cn(-c3cccc(C(=O)/C=C/c4cc(OC)c(OC)c(OC)c4)c3)c(=O)[nH]2)cc1OC label=inactive
compound=O=S(=O)(c1ccc(OCCO)cc1)c1ccc(OCCO)cc1 label=inactive
compound="O=C(Oc1ccccc1[N+](=O)[O-])C1CCCN1C(=O)OCc1ccccc1 (centres undefined)" label=inactive
compound=O=c1[nH]c(-c2ccccc2)nc(CN2CCCCC2)c1O label=inactive

Hello, I am checking results. What call was entered for CSc1nc2c(c(=O)[nH]1)C(c1ccc(C)cc1)C=C(C(=O)O)N2 (centres undefined) ?
inactive

Please indicate how the test categorized Cc1cc(N)n(S(=O)(=O)c2oc(-c3ccccc3)nc2C#N)n1 .
inactive

Hey, what did the test say about O=S(=O)(NCCCNc1nccc(-n2ccc3cccnc32)n1)c1cccc(C(F)(F)F)c1 ?
inactive

Record request — test call for COc1ccc(/C=N\NC(=O)CN2CCN(c3cc4c(cc3F)c(=O)c(C(=O)N/N=C/c3ccc(OC)c(OC)c3)cn4C3CC3)CC2)cc1OC
inactive

---

Test system: MCF7 breast
Assay: NCI-60 one-dose screen, 48 h
Condition: 10 µM unless noted
This is part of a sample that, as a whole, favours compounds with a hit. Of some 83,000 tested, about 20% had one in any assay. Calls of active or inactive are those of the source. How the source made its calls: active means growth percent below 10; inactive means the rest.
Log the outcome using a class from true (1) (active), false (0) (inactive)

// below: answered compounds
smiles_code=N[C@@H]1CCN(C(=O)c2cc3cc(Cl)c(F)c(F)c3[nH]2)C1 study_system="MCF7 breast" label="false (0)"
smiles_code=Cc1cc(N/N=C/c2nc(-c3ccccc3)oc2C)c2cc(Cl)ccc2n1 study_system="MCF7 breast" label="true (1)"
smiles_code=N#Cc1c(-c2ccccc2)cc(-c2ccccc2)n(CC(=O)NO)c1=O study_system="MCF7 breast" label="false (0)"
smiles_code=COc1cc(/C=N\NC(=O)CN2CCN(c3cc4c(cc3F)c(=O)c(C(=O)N/N=C/c3cc(OC)c(OC)c(OC)c3)cn4C3CC3)CC2)cc(OC)c1OC study_system="MCF7 breast" label="true (1)"

Attention now shifts to the item below.
Hi, do you know how O=C(/C=C\c1cccc([N+](=O)[O-])c1)/C=C/c1cccc([N+](=O)[O-])c1 came out in this test?
false (0)

---

System: RPMI-8226 leukemia
Assay: NCI-60 one-dose screen, 48 h
Condition: 10 µM unless noted
About 83,000 compounds went through this panel and 20% of them were active in at least one assay; those are over-represented in the sample as a whole. Calls of active or inactive are those of the source. Rule for the calls: active = growth percent below 10; inactive = the rest.
Field 'call' accepts y for active, n for inactive

Recorded results for 10 molecules are shown here.
molecule=Cc1cccc(/C=N/Nc2cc(C)c3cccc(C)c3n2)n1 label=n
molecule=COc1ccc(-n2c(=O)sc3c(Cl)nc(C)nc32)c(OC)c1 label=n
molecule="O=C(CSC1CCc2ccccc21)N/N=C/c1ccccc1O (stereo not drawn)" label=n
molecule="NC1=C(/C(N)=N/O)C(c2ccccc2)c2ccc3ccccc3c2O1 (stereo not drawn)" label=n
molecule=CC(=O)Nc1nc(N)nc(NC(C)=O)c1N=O label=n
molecule=COc1ccc(-c2nc3sc(-c4cc(OC)c(OC)c(OC)c4)nn3c2/C=C2/C(=O)Nc3ccc(F)cc32)cc1 label=n
molecule=Cc1ccc(S(=O)(=O)n2cc(C(=O)C(=O)Nc3ccncc3)c3ccccc32)cc1 label=n
molecule=CCn1c2ccccc2c2cc(NC(=O)Nc3ccc([N+](=O)[O-])cc3C)ccc21 label=y
molecule=O=[N+]([O-])c1cccc(-c2nc3sccn3c2-c2ccnc(NCCCNS(=O)(=O)c3ccc(C(F)(F)F)cc3)n2)c1 label=y
molecule="CC(NNC(C)c1ccccc1)c1ccccc1 (stereo not drawn)" label=n

State the result this test recorded for COc1ccc(-n2c(-c3ccccc3)c(-c3ccccc3)c3c(SCC(=O)N/N=C/c4ccc(Cl)cc4)ncnc32)cc1 .
n

Please let me know the test result on file for O=C(Nc1cccc(-n2cc(-c3ccncc3)c(-c3ccc(Cl)c(O)c3)n2)c1)Nc1ccc(Cl)c(C(F)(F)F)c1 .
y

State the result this test recorded for N#C/C(=C1C=C/C(=N/O)C(Cl)=C/1)c1ccc(Cl)cc1 .
n

For CCOc1cc2c(Cl)ncnc2c(OCC)c1OCC , what call appears in the results of this test?
n

Recorded test call requested for Brc1cccc(-c2cc(-c3ccc4c(c3)OCCCO4)[nH]n2)c1
n

Recorded test outcome, item O=C(Nc1ccc2c(c1)OCO2)C(=O)c1c[nH]c2cc(F)ccc12
n

What classification did COc1ccc(N=Cc2c(O)ccc3c2oc2cc(Cl)c(O)c(Cl)c23)cc1 end up with in this test?
n

Per the assay record, what outcome was assigned to COc1cc(NCCCCCN)c2ncccc2c1 ?
n

# outcome recorded in this test, key = CN1C=CN(Cc2ccc(-c3ccccn3)nc2)[CH-]1.CN1C=CN(Cc2ccc(-c3ccccn3)nc2)[CH-]1.[Au+3]
n

Identify the outcome logged in this assay for the molecule shown: CN(C)CC(C(=O)c1ccccc1)c1ccccc1 (stereo not drawn)
y

Outcome? Cc1ccc2ccccc2c1C[n+]1ccccc1
n

Which outcome did this test record for the molecule O=C(O)Cc1cccc(=O)c(O)c1C(=O)O ?
n

What classification did NC1=NC(SCc2ccccc2CCl)c2ncn(Cc3ccccc3CCl)c2N1 (stereo not drawn) end up with in this test?
n

Entry O=S(=O)(NCCNc1nccc(-c2c(-c3ccc(F)cc3)nc3sccn23)n1)c1ccc(F)cc1 : call = ?
n

Could you kindly confirm the outcome this assay logged for C=C1C(=O)O[C@H]2[C@H]1CC/C(Cn1cc(CNC(=O)/C=C/c3c[nH]c4ccccc34)nn1)=C\CC[C@@]1(C)O[C@@H]21 ?
n

Which outcome was assigned to COc1ccc2[nH]c(=O)c3c4ccccc4cn3c2c1 in this test?
y

Hi, sorry to bother you, what did the test record for C=C[C@@H]1C[C@@H]2Cc3cc(F)ccc3N1O2 ?
n
